// reported Population Normal (%) per item
Tested on: U2OS
Test: Multiplex assay against U2OS
Type: toxicity, cell-based
Conditions: human, 24 h, 1 µM, compound concentration 1 uM, number of replicates 2
*1 amine or outer side, *2 acyl side, *3 side chain or, on linkers, in order; H or OH if unused. Where a SMILES comes first, the peptide text is derived from it. Bridges are numbered along the chain shown (N, C = ends). Roman numbers before positions name the chains, in order. [ ]: non-standard residue; d: D form. Hexamethylenediamine = C(CCCN[*:2])CCN[*:1]; Dip = N[C@H](C(=O)O)C(c1ccccc1)c1ccccc1; Chg = N[C@H](C(=O)O)C1CCCCC1; NMeA = CN[C@@H](C)C(=O)O
RESULT TYPE: Population Normal (%)

compound=CS(=O)(=O)c1ccc(C(=O)Nc2cc(F)c(F)c(COc3cc(F)c(Br)cc3CN3CC[C@H](O)C3)c2)c(Cl)c1.O=CO result_type="Population Normal (%)" test_value=100
compound="CN[C@@H](C)C(=O)N[C@H](C(=O)N1CCC[C@H]1C(=O)N[C@H](C(=O)NCCCCCCNC(=O)[C@@H](NC(=O)[C@@H]1CCCN1C(=O)[C@@H](NC(=O)[C@H](C)NC)C1CCCCC1)C(c1ccccc1)c1ccccc1)C(c1ccccc1)c1ccccc1)C1CCCCC1 (I: H-[NMeA][Chg]P[Dip] / II: H-[NMeA][Chg]P[Dip]; linker I:C-II:C via Hexamethylenediamine)" result_type="Population Normal (%)" test_value=100
